- Test system: Neuro-2a
- experimentNotes: neurite formation score, plate-normalized to DMSO control mean 5.04 (score (0-8 scale)); higher = more or longer neurites
- assayConditions: 1 µM
measurementType: neurite formation score
Format: numeric value only, no unit, no commentary.

Challenge: Can you look up the measured neurite formation score of O=C(Cc1ccc(-c2ccc(OCCN3CCOCC3)cc2)cn1)NCc1ccccc1 for me?
Response given: -0.529

---
Challenge: Can you look up the measured neurite formation score of O=c1cc(-c2cccc3c2Sc2ccccc2S3)oc(N2CCOCC2)c1 for me?
Response given: 3.69

Challenge: Can you look up the measured neurite formation score of C=CC(=O)Nc1cccc(Oc2nc(Nc3ccc(N4CCN(C)CC4)cc3OC)ncc2Cl)c1 for me?
Response given: 4.24

Challenge: Can you look up the measured neurite formation score of O=S(=O)(NCCNC/C=C/c1ccc(Br)cc1)c1cccc2cnccc12 for me?
Response given: 4.54

Challenge: Can you look up the measured neurite formation score of CCS(=O)(=O)Nc1ccc2[nH]c(O)c(C(=Nc3ccc(CN4CCCCC4)cc3)c3ccccc3)c2c1 for me?
Response given: 1.02

Challenge: Can you look up the measured neurite formation score of Nc1cc(N)c(N)cc1N for me?
Response given: 4.54

---

- System: Neuro-2a
- experimentNotes: neurite formation score, plate-normalized to DMSO control mean 5.04 (score (0-8 scale)); higher = more or longer neurites
- assayConditions: 0.1 µM
Structures can show the parent of a compound that is named as a salt.
Note to self: values exactly at 5 are met. So neurite formation score at or above 5 is met, below is not met.

Challenge: Check the entry O=C(Nc1cccc(Cl)c1)Nc1ncc(CCNc2ncnc3ccsc23)s1 [SNS-314 Mesylate] : does neurite formation score equal or exceed 5?
Response given: not met

---
Challenge: Check the entry COc1ccc(-c2ccc3c(N4CCOCC4)nc(N4C[C@@H](C)O[C@@H](C)C4)nc3n2)cc1CO : does neurite formation score equal or exceed 5?
Response given: not met

Challenge: Check the entry CCN1CCN(c2ccc(Nc3cc(N(C)C(=O)Nc4c(Cl)c(OC)cc(OC)c4Cl)ncn3)cc2)CC1 : does neurite formation score equal or exceed 5?
Response given: not met

Challenge: Check the entry CN(C)C1CCN(C(=O)c2ccc(NC(=O)Nc3ccc(-c4nc(N5CCOCC5)nc(N5CCOCC5)n4)cc3)cc2)CC1 : does neurite formation score equal or exceed 5?
Response given: not met

---

- Tested on: Neuro-2a
- experimentNotes: neurite formation score, plate-normalized to DMSO control mean 5.04 (score (0-8 scale)); higher = more or longer neurites
- assayConditions: 1 µM
measurementType: neurite formation score
Format: numeric value only, no unit, no commentary.

Challenge: Can you look up the measured neurite formation score of O=c1oc2c(O)c(O)cc3c(=O)oc4c(O)c(O)cc1c4c23 [Ellagic acid] for me?
Response given: 4.47

Challenge: Can you look up the measured neurite formation score of FC(F)(F)c1ccc(CNc2ccc(Cc3c[nH]c4ncccc34)cn2)cc1 for me?
Response given: 3.54

Challenge: Can you look up the measured neurite formation score of CCN1CCN(Cc2ccc(Nc3ncc(F)c(-c4cc(F)c5nc(C)n(C(C)C)c5c4)n3)nc2)CC1 for me?
Response given: 4.57

Challenge: Can you look up the measured neurite formation score of CNC(=O)c1c(F)cccc1Nc1nc(Nc2cc3c(cc2OC)CCN3C(=O)CN(C)C)nc2[nH]ccc12 for me?
Response given: 4.96

Now look at this entry.
Challenge: Can you look up the measured neurite formation score of CCOc1ccc(Nc2ccc(/C(=C3C=C/C(=[N+](/CC)Cc4cccc(S(=O)(=O)[O-])c4)C=C/3C)c3ccc(N(CC)Cc4cccc(S(=O)(=O)O)c4)cc3C)cc2)cc1 [Brilliant Blue G] for me?
Response given: 5.21
